The reported measurements were obtained from patent US20250127800A1.

experiment: In vivo pharmacokinetic evaluation in SD rats, gavage; settings: rat, plasma, po, male SD rats, 3 mg/kg
test.readout: AUC(0-inf) (µM·h)
Return type: number; implicit unit µM·h.

compound "C=CC(=O)N1CCC[C@H](c2cccc(NCc3ccc(Nc4ncc(C(F)(F)F)c(Nc5ccccc5C(=O)NOC)n4)cc3)c2)C1" , AUC(0-inf) observed: 0.711

Entry "C=CC(=O)N1CCC[C@@H](c2cccc(NCc3ccc(Nc4ncc(C(F)(F)F)c(Nc5ccccc5C(=O)NOC)n4)cc3)c2)C1" — recorded AUC(0-inf) = 0.368

---

molecular target: FAK (Homo sapiens (Human)); test: In vitro enzymatic inhibitory activity, FAK kinase (HTRF KinEASE-TK); conditions: FAK kinase, enzyme pre-incubation 15 minutes at 25° C.
Sequence (Q05397 whole entry, species assumed): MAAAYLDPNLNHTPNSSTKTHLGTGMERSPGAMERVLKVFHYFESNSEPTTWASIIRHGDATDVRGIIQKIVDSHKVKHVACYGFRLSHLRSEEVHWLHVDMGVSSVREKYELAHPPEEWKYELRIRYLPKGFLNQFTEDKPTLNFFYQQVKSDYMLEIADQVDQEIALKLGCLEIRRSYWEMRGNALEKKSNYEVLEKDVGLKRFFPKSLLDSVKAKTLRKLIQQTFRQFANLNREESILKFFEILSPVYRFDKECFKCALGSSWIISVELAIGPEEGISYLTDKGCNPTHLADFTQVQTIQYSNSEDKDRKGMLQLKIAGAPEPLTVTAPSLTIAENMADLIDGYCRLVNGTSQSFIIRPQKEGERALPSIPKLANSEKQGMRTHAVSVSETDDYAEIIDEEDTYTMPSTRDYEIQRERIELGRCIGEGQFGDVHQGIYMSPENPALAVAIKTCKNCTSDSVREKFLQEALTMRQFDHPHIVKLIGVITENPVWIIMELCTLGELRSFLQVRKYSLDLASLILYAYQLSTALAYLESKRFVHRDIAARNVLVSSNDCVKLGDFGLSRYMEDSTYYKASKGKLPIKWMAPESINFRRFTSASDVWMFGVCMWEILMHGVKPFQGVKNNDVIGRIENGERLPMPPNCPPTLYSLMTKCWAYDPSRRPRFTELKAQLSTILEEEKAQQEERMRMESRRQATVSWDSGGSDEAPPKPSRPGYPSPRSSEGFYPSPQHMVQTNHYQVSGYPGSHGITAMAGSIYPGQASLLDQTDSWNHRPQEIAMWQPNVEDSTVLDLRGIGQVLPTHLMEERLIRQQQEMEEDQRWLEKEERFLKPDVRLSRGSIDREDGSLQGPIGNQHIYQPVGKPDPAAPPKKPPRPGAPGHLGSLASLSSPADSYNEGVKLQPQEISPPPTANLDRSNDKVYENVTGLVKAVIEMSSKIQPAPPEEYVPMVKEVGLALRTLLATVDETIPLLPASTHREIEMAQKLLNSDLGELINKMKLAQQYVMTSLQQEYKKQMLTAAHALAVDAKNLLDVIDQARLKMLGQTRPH
test.readout: IC50

Example compounds with recorded IC50:
The compound identified as C=CC(=O)N1CCCC(c2cccc(NCc3ccc(Nc4ncc(C(F)(F)F)c(NCc5nccnc5N(C)S(C)(=O)=O)n4)cc3)c2)C1 (stereo not drawn) [Compound 14] registered its IC50 at 4.36 nM

Short answer for C=CC(=O)N1CCC(CNC(=O)c2ccc(Nc3ncc(C(F)(F)F)c(Nc4ccccc4P(C)(C)=O)n3)cc2)CC1 [Compound 7] : IC50 was 3.58 nM

# evaluate next
For this compound ( C=CC(=O)N1CCC[C@H](c2cccc(NCc3ccc(Nc4ncc(C(F)(F)F)c(Nc5ccccc5C(=O)NOC)n4)cc3)c2)C1 [Compound 36] ), measured IC50 is 0.97 nM
